Values from patent US20100233229A1

Recorded ultra-micro hardness under load (HTL) values for a group of compounds are listed next.
# procedure.text: ultra-micro hardness under load (HTL) of coating layer, JIS Z2255, dynamic ultra micro hardness tester
# Assay type: physicochemical
# reported.conditions: coating layer on SUS disc; 50 mg sirolimus, 50 mg PLGA, 10 mg (20% based on PLGA) of the triglyceride; about 30 μm

- compound: "CCCCCCCCCCCC(=O)OCC(COC(=O)CCCCCCCCCCC)OC(=O)CCCCCCCCCCC [Trilaurin]"
  ultra-micro hardness under load (HTL): 15
- compound: "CCCCCCCC(=O)OCC(COC(=O)CCCCCCC)OC(=O)CCCCCCC [Tricaprylin]"
  ultra-micro hardness under load (HTL): 10
- compound: "CCCCCCCCCC(=O)OCC(COC(=O)CCCCCCCCC)OC(=O)CCCCCCCCC [Tricaprin]"
  ultra-micro hardness under load (HTL): 9
- compound: "CC(=O)OCC(COC(C)=O)OC(C)=O [Triacetin]"
  ultra-micro hardness under load (HTL): 20
- compound: "CCCC(=O)OCC(COC(=O)CCC)OC(=O)CCC [Tributyrin]"
  ultra-micro hardness under load (HTL): 19
- compound: "CCCCCCCCCCCCCC(=O)OCC(COC(=O)CCCCCCCCCCCCC)OC(=O)CCCCCCCCCCCCC [Trimyristin]"
  ultra-micro hardness under load (HTL): 20
- compound: "CCCCCC(=O)OCC(COC(=O)CCCCC)OC(=O)CCCCC [Tricaproin]"
  ultra-micro hardness under load (HTL): 15
